# system.name: T1, human Type I GnRH receptor (human, UniProt P30968 1-328)
# T1 construct: whole, on cells; Transiently expressed in COS-7 cells; also called Type I receptor
# T1 sequence (looked up): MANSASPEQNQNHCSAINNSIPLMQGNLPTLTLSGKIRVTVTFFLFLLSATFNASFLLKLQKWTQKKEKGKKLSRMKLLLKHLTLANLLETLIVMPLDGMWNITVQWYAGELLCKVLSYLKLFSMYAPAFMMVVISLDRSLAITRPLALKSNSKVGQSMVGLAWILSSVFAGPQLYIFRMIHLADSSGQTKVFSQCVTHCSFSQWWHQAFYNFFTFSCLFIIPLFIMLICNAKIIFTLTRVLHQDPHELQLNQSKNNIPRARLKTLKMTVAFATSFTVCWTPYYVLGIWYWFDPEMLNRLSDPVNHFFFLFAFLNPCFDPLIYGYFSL
# assay.protocol: competition with ^125I-[His^5-D-Tyr^6]GnRH I on COS-7 cells expressing the receptor (n = 3-6)
Ends that are not written are not given here.
measure.name: IC50 (nM)
Answers are plain numbers, in nM.

stdin: IC50 for QHWSHGWYPG (peptide, UniProt O43555 24-33, looked up, ends and bridges not checked, mature; also called GnRH Type II; Type II GnRH) [GnRH II] ?
stdout: 26.1
